Values from patent US20250152746A1

Test system: PCSK9 gene
Assay: PCSK9 gRNA/SpCas9 editing in primary cynomolgus hepatocytes (Tables 2, 22)
Type: cell-based, cynomolgus monkey
Settings: SpCas9 mRNA MS002, 1250 ng/test article/mL, rep2
In the oligonucleotide strings, read from the 5' end, every base follows the letter of its sugar. An asterisk marks phosphorothioate; unmarked linkages are phosphodiester. Other units and linkages are bracketed, terminal groups are in braces. A string of capitals states the bases alone. m = 2'-O-methyl; r = 2'-OH (RNA)
Returns one of condition met or condition not met; condition met when Cynomolgus Primary Hepatocytes-% Editing is >= 50%.

[
  {
    "molecule": "GA396 (nucleic acid) guide: mU*mC*mA*rGrCrUrCrCrArGrGrCrGrGrUrCrCrUrGrGmGrUrUrUrUrArGmAmGmCmUmArGmAmAmAmUmAmGmCmAmArGrUrU*mArAmArAmUrAmAmGmGmCmUmArGrUmCmCrGrUrUrAmUmCrArAmCmUmUrGmAmAmAmAmAmGmUmGrGmCmAmCmCmGmAmGmUmCmGmGmUmGmCmU*mU*mU*mUmUmUmU",
    "class": "condition met"
  },
  {
    "molecule": "GA404 (nucleic acid) guide: mU*mC*mA*rGrCrUrCrCrArGrGrCrGrGrUrCrCrUrGrGmGrUrUrUrUrArGmAmGmCmUmArGmAmAmAmUmAmGmCmAmArGrUrUmArAmArAmUrAmAmGmGmCmUmArGrUmCmCrGrUrU*rAmUmCrArAmCmUmUrGmAmAmAmAmAmGmUmGrGmCmAmCmCmGmAmGmUmCmGmGmUmGmCmU*mU*mU*mUmUrUmU",
    "class": "condition not met"
  },
  {
    "molecule": "GA402 (nucleic acid) guide: mU*mC*mA*rGrCrUrCrCrArGrGrCrGrGrUrCrCrUrGrGmGrUrUrUrUrArGmAmGmCmUmArGmAmAmAmUmAmGmCmAmArGrUrUmArAmArAmUrAmAmGmGmCmUmArGrUmCmCrGrUrUrAmUmCrArAmCmUmUrGmAmAmAmAmAmGmUmGrGmCmAmCmCmGmAmGmUmCmGmGmUmGmCmU*mU*mU*mUmUrUmU",
    "class": "condition not met"
  },
  {
    "molecule": "GA397 (nucleic acid) guide: mU*mC*mA*rGrCrUrCrCrArGrGrCrGrGrUrCrCrUrGrGmGrUrUrUrUrArGmAmGmCmUmArGmAmAmAmUmAmGmCmAmArGrUrUmArAmArAmUrAmAmGmGmCmUmArGrUmCmCrGrUrU*rAmUmCrArAmCmUmUrGmAmAmAmAmAmGmUmGrGmCmAmCmCmGmAmGmUmCmGmGmUmGmCmU*mU*mU*mUmUmUmU",
    "class": "condition met"
  },
  {
    "molecule": "GA406 (nucleic acid, listed as RNA; modified_base 1: mod_base = OTHER; note = 2'-O-Methyl-uridine phosphorothioate; modified_base 2: mod_base = OTHER; note = 2'-O-Methyl-cytidine phosphorothioate; modified_base 3: mod_base = OTHER; note = 2'-O-Methyl-adenosine phosphorothioate;) guide: TCAGCTCCAGGCGGTCCTGGGTTTTAGAGCTAGAAATAGCAAGTTAAAATAAGGCTAGTCCGTTATCAACTTGAAAAAGTGGCACCGAGTCGGTGCTTTTTTT",
    "class": "condition not met"
  },
  {
    "molecule": "GA399 (nucleic acid) guide: mU*mC*mA*rGrCrUrCrCrArGrGrCrGrGrUrCrCrUrGrGmGrUrUrUrUrArGmAmGmCmUmAmGmAmAmAmUmAmGmCmAmArGrUrUmArAmArAmUrAmAmGmGmCmUmArGmUrCmCrGrUrUmAmUmCrArAmCmUmUmGmAmAmAmAmAmGmUmGmGmCmAmCmCmGmAmGmUmCmGmGmUmGmCmU*mU*mU*mUmUmUmU",
    "class": "condition met"
  },
  {
    "molecule": "GA403 (nucleic acid) guide: mU*mC*mA*rGrCrUrCrCrArGrGrCrGrGrUrCrCrUrGrGmGrUrUrUrUrArGmAmGmCmUmArGmAmAmAmUmAmGmCmAmArGrUrU*mArAmArAmUrAmAmGmGmCmUmArGrUmCmCrGrUrUrAmUmCrArAmCmUmUrGmAmAmAmAmAmGmUmGrGmCmAmCmCmGmAmGmUmCmGmGmUmGmCmU*mU*mU*mUmUrUmU",
    "class": "condition not met"
  },
  {
    "molecule": "GA398 (nucleic acid) guide: mU*mC*mA*rGrCrUrCrCrArGrGrCrGrGrUrCrCrUrGrGmGrUrUrUrUrArGmAmGmCmUmAmGmAmAmAmUmAmGmCmAmArGrUrUmArAmArAmUrAmAmGmGmCmUmArGrUrCmCrGrUrUrAmUmCrArAmCmUmUmGmAmAmAmAmAmGmUmGmGmCmAmCmCmGmAmGmUmCmGmGmUmGmCmU*mU*mU*mUmUmUmU",
    "class": "condition met"
  },
  {
    "molecule": "GA395 (nucleic acid) guide: mU*mC*mA*rGrCrUrCrCrArGrGrCrGrGrUrCrCrUrGrGmGrUrUrUrUrArGmAmGmCmUmArGmAmAmAmUmAmGmCmAmArGrUrUmArAmArAmUrAmAmGmGmCmUmArGrUmCmCrGrUrUrAmUmCrArAmCmUmUrGmAmAmAmAmAmGmUmGrGmCmAmCmCmGmAmGmUmCmGmGmUmGmCmU*mU*mU*mUmUmUmU",
    "class": "condition not met"
  },
  {
    "molecule": "GA405: gRNA targeting PCSK9 with modifications to the tracr, for SpCas9 (nucleic acid) guide: mU*mC*mA*rGrCrUrCrCrArGrGrCrGrGrUrCrCrUrGrGmGrUrUrUrUrArGmAmGmCmUmAmGmAmAmAmUmAmGmCmAmArGrUrUmArAmArAmUrAmAmGmGmCmUmArGrUrCmCrGrUrUrAmUmCrArAmCmUmUmGmAmAmAmAmAmGmUmGmGmCmAmCmCmGmAmGmUmCmGmGmUmGmCmU*mU*mU*mUmUrUmU",
    "class": "condition not met"
  }
]
